Assay: Solubility of peptides in DMSO/D5W/5 mM succinate formulation
Settings: pH 6
Quantity Name: solubility

[ask] // fetch solubility given entry H-ESKLFGDPDEFSLAHLLEPFRQYYL-OH
[reply] < 2000 µg/mL

[ask] // fetch solubility given entry H-GALGAVGATKVPRNQDWLGVSRQLRTKA-OH
[reply] > 2000 µg/mL

[ask] // fetch solubility given entry H-PETGEIQVKTFLDREQRESYELKV-OH
[reply] > 2000 µg/mL

[ask] // fetch solubility given entry H-VTLNDMKARQKALVRERERQLA-OH
[reply] > 2000 µg/mL

[ask] // fetch solubility given entry H-LAALCPASRALEEKKGNYVVTDH-OH
[reply] > 2000 µg/mL

[ask] // fetch solubility given entry H-PAAGDFIRFRFFQLLRLERFF-OH
[reply] < 2000 µg/mL

[ask] // fetch solubility given entry H-ETYSRSFYPEHSIKEWLIGMELVFV-OH
[reply] < 2000 µg/mL

[ask] // fetch solubility given entry H-PIDTSKTDPTVLLFMESQYSQLGQD-OH
[reply] > 2000 µg/mL

[ask] // fetch solubility given entry H-LVDQWRWGVFSGHTPPSRYNFDWWY-OH
[reply] < 2000 µg/mL

[ask] // fetch solubility given entry H-LAALCPASRALEEKKGNYVVTDHGS-OH
[reply] > 2000 µg/mL

[ask] // fetch solubility given entry H-HPEFANPDSMEYISDVVDEVIQN-OH
[reply] > 2000 µg/mL

Values from patent US20190060428A1
